# assayed system: T1, CRBN, Q96SW2;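 also: pooled lentiviral library of zinc finger degron-EGFP fusions in mCherry-positive Jurkat cells, FACS-sorted after compound exposure, with degron abundance counted by next-generation sequencing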
# T1 chain: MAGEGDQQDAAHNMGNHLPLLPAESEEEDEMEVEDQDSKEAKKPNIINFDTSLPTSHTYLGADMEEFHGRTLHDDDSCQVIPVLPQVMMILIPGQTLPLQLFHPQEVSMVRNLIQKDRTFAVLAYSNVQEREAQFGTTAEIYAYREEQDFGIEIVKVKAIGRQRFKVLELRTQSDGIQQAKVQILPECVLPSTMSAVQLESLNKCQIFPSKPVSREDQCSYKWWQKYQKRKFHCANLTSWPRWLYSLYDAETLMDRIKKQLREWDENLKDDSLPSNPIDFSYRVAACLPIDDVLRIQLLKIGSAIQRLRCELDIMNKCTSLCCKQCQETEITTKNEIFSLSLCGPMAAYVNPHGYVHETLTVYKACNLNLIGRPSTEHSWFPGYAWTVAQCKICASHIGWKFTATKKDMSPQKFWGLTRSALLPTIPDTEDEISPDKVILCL
# test method notes: log2 fold change of degron read counts, EGFP-low vs EGFP+ sorted cells (limma voom), compound-induced degradation; higher = more compound-induced degradation of the degron-EGFP fusion; degrons are variants of IKZF1/3 zinc finger 2; compound dose not given here
# condition label: Jurkat; 18 h; compound: compound 33 (diphenyl IMiD analogue)
The full ranking holds about 8,300 sequences; the median of “log2 fold change of degron read counts, EGFP-low vs EGFP+ sorted cells (limma voom), compound-induced degradation” is about -1.1, and the highest 2% start at about 3.2. This excerpt belongs to a sample that is enriched for the highest values.
The following sequences are listed with their measured log2 fold change of degron read counts values.

>>> df
                           polymer_sequence                       measured_property  result
0  FQCEICGAHFTQKGNLLRHIKL [46F_47Q_49E_50I_52G_53A_54H_55F_67L_, Q9UKT9]  log2 fold change of degron read counts   0.886
1  FVCEICGAGFTQKGNLLRHIKL [46F_47V_49E_50I_52G_53A_54G_55F_67L_, Q9UKT9]  log2 fold change of degron read counts    1.92
2  FVCPICGACFTQKGNLLRHIKL [46F_47V_49P_50I_52G_53A_54C_55F_67L_, Q9UKT9]  log2 fold change of degron read counts    2.08
3  LGCEICGFFCTQKGNLLRHIKL [46L_47G_49E_50I_52G_53F_54F_55C_67L_, Q9UKT9]  log2 fold change of degron read counts   0.628
4  LDCPICGFWCTQKGNLLRHIKL [46L_47D_49P_50I_52G_53F_54W_55C_67L_, Q9UKT9]  log2 fold change of degron read counts    0.68
5  FSCDVCGAPFTQKGNLLRHIKL [46F_47S_49D_50V_52G_53A_54P_55F_67L_, Q9UKT9]  log2 fold change of degron read counts  -0.896
6  FQCPVCGAKFTQKGNLLRHIKL [46F_47Q_49P_50V_52G_53A_54K_55F_67L_, Q9UKT9]  log2 fold change of degron read counts   0.361
7  FDCPVCGAKFTQKGNLLRHIKL [46F_47D_49P_50V_52G_53A_54K_55F_67L_, Q9UKT9]  log2 fold change of degron read counts  -0.726

For reference, reported log2 fold change of degron read counts for FCCPICGACFTQKGNLLRHIKL [46F_47C_49P_50I_52G_53A_54C_55F_67L_, Q9UKT9] stands at 2.82

For reference, reported log2 fold change of degron read counts for LMCNQCGFMCTQKGNLLRHIKL [46L_47M_49N_50Q_52G_53F_54M_55C_67L_, Q9UKT9] stands at -0.98

For reference, reported log2 fold change of degron read counts for FFCEICGAHFTQKGNLLRHIKL [46F_47F_49E_50I_52G_53A_54H_55F_67L_, Q9UKT9] stands at 2.07
